Exercise: for every item that follows, state its recorded % of Inhibition.
- Tested on: Bovine Uteral Progesterone Receptors
- TEST_DETAILS: Inhibition of 3H-progesterone binding, uterus cytosol
- APPLIED_CONDITIONS: competitor 10^-6M; 3H-progesterone 0.15 nM
Please append the unit to your numeric answer.

Guide cases for % of Inhibition, answers given:
CCC(=O)[C@@]1(C)CC[C@H]2[C@@H]3CCC4=CC(=O)CCC4=C3CC[C@@]21C	100%
CC(=O)[C@H]1CC[C@H]2[C@@H]3CC[C@H]4C[C@H](O)CC[C@]4(C)[C@H]3CC[C@]12C [3α-Hydroxy-5α-pregnan-20-one, 3α-hydroxy-5α-pregnan-20-one]	14%
CC(=O)[C@H]1CC[C@H]2[C@@H]3CC[C@@H]4C[C@H](O)CC[C@]4(C)[C@H]3CC[C@]12C	9%
CC(=O)[C@H]1CC[C@H]2[C@@H]3CC[C@H]4C[C@](C)(O)CC[C@]4(C)[C@H]3CC[C@]12C [3α-hydroxy-3β-methyl-5α-pregnan-20-one]	4%

Query block: Note % of Inhibition for the compound shown: C[C@]12CC[C@@H](O)C[C@@H]1CC[C@@H]1[C@@H]2CC[C@]2(C)[C@@H](C(=O)CO)CC[C@@H]12 [3α,21-dihydroxy-5α-pregnan-20-one]
Result block: 13%

----------
- Test system: GR complex
- TEST_DETAILS: [35S]TBPS binding assay (inhibition of [35S]TBPS binding, cerebral cortex P2 homogenate)
- Set-up: species or system rat
- APPLIED_CONDITIONS: maximum inhibition of [35S]TBPS binding
PARAMETER: IMAX (%)
Numbers only, in %.

COCC1(O)CCC2(C)C(CCC3C2CCC2(C)C(C(=O)CSS(=O)(=O)[O-])CCC32)C1.[Na+] (stereo not shown)	103
CC(=O)[C@H]1CC[C@H]2[C@@H]3CC[C@H]4C[C@@](O)(C#CCC(C)O)CC[C@]4(C)[C@H]3CC[C@]12C (mixture of isomers)	101
CC(=O)[C@H]1CC[C@H]2[C@@H]3CC[C@@H]4C[C@@](O)(C#CCCC(N)=O)CC[C@]4(C)[C@H]3CC[C@]12C	102

Provide IMAX for all items below, preserving their order.
1. CC(=O)C1CCC2C3CCC4CC(O)(C#CCCO)CCC4C3CCC12C (stereo not shown)
2. CC(=O)[C@H]1CC[C@H]2[C@@H]3CC[C@@H]4C[C@@](O)(C#Cc5ccc(-c6ccccc6)cc5)CC[C@]4(C)[C@H]3CC[C@]12C
3. CC(=O)c1ccc(C#C[C@@]2(O)CC[C@@]3(C)[C@H](CC[C@@H]4[C@@H]3CC[C@]3(C)[C@@H](C(C)=O)CC[C@@H]43)C2)s1
4. CC12CCC(O)(C#CCCO)CC1CCC1C2CCC2(C)C(C(=O)Cn3cncn3)CCC12 (stereo not shown)

Result block:
1. 102
2. 83
3. 89
4. 96

----------
- System: GR complex
- TEST_DETAILS: [35S]TBPS binding assay (inhibition of [35S]TBPS binding, cerebral cortex P2 homogenate)
- Parameters: species or system rat
- APPLIED_CONDITIONS: maximum inhibition of [35S]TBPS binding
Could you please report measured IMAX for the items listed next?
Give bare numbers, in %.

C[C@]12CC[C@@H](O)C[C@H]1CC[C@@H]1[C@@H]2CC[C@]2(C)[C@@H](C(=O)Cn3nccn3)CC[C@@H]12	79
C[C@@]1(O)CC[C@@]2(C)[C@@H](CC[C@@H]3[C@@H]2CC[C@]2(C)[C@@H](C(=O)Cn4cnc5ccccc54)CC[C@@H]32)C1	95

For every item below, please supply its IMAX.
1. CC(=O)[C@H]1CC[C@H]2[C@@H]3CC[C@@H]4C[C@@](O)(CCCc5ccccc5)CC[C@]4(C)[C@H]3CC[C@]12C
2. CC(=O)[C@H]1CC[C@H]2[C@@H]3CC[C@@H]4C[C@@](O)(CCc5ccccc5)CC[C@]4(C)[C@H]3CC[C@]12C
3. COCC#C[C@@]1(O)CC[C@@]2(C)[C@H](CC[C@@H]3[C@@H]2CC[C@]2(C)[C@@H](C(C)=O)CC[C@@H]32)C1
4. C[C@]12CC[C@@H](O)C[C@@H]1CC[C@@H]1[C@@H]2CC[C@]2(C)[C@@H](C(=O)Cn3cccn3)CC[C@@H]12

Result block:
92
98
105
98

Please give IMAX for each item listed below.
1. C#C[C@@]1(O)CC[C@@]2(C)[C@H](CC[C@@H]3[C@@H]2CC[C@]2(C)[C@@H](C(=O)Cn4ccnc4)CC[C@@H]32)C1
2. CC(=O)[C@H]1CC[C@H]2[C@@H]3CC[C@@H]4C[C@@](O)(C#Cc5cccs5)CC[C@]4(C)[C@H]3CC[C@]12C
3. CCOC(=O)c1ccc(C#CC2(O)CCC3C(CCC4C3CCC3(C)C(C(C)=O)CCC43)C2)cc1 (centres unmarked)
4. C#C[C@@]1(O)CC[C@@]2(C)[C@H](CC[C@@H]3[C@@H]2CC[C@]2(C)[C@@H](C(=O)Cn4cccn4)CC[C@@H]32)C1
5. CC(=O)OCC#C[C@@]1(O)CC[C@@]2(C)[C@H](CC[C@@H]3[C@@H]2CC[C@]2(C)[C@@H](C(C)=O)CC[C@@H]32)C1
6. CC(=O)C1CCC2C3CCC4CC(O)(C#CC=O)CCC4(C)C3CCC12C (centres unmarked)
7. C[C@@]1(O)CC[C@@]2(C)[C@@H](CC[C@@H]3[C@@H]2CC[C@]2(C)[C@@H](C(=O)Cn4ccnn4)CC[C@@H]32)C1

Result block:
103
100
94
99
104
76
99

Query block: State IMAX on GR complex. Entry: CC(=O)[C@H]1CC[C@H]2[C@@H]3CC[C@@H]4C[C@@](O)(Cc5ccccc5)CC[C@]4(C)[C@H]3CC[C@]12C [3β-Benzyl-3α-hydroxy-5β-pregnan-20-one, 3α-hydroxy-3β-benzyl-5β-pregnan-20-one]
Result block: 102

----------
- TARGET_DESC: GR complex
- TEST_DETAILS: [35S]TBPS binding assay (inhibition of [35S]TBPS binding, cerebral cortex P2 homogenate)
- Set-up: species or system rat
- APPLIED_CONDITIONS: 2 nM [35S]TBPS, rat cerebral cortex P2 homogenate
PARAMETER: IC50
Your reply should be a number followed by the unit it is expressed in.

# count of solved cases: 4
CC(=O)[C@H]1CC[C@H]2[C@@H]3CC[C@@H]4C[C@@](O)(CCc5ccccc5O)CC[C@]4(C)[C@H]3CC[C@]12C	0.101 µM
C[C@@]1(O)CC[C@@]2(C)[C@@H](CC[C@@H]3[C@@H]2CC[C@]2(C)[C@@H](C(=O)Cn4cnc5ccccc54)CC[C@@H]32)C1	0.109 µM
C#C[C@@]1(O)CC[C@@]2(C)[C@H](CC[C@@H]3[C@@H]2CC[C@]2(C)[C@@H](C(=O)Cn4cncn4)CC[C@@H]32)C1	0.127 µM
COc1ccccc1C#C[C@@]1(O)CC[C@@]2(C)[C@H](CC[C@@H]3[C@@H]2CC[C@]2(C)[C@@H](C(C)=O)CC[C@@H]32)C1	0.238 µM

Query block: Report IC50 on GR complex for this entry: CC(=O)OCC(=O)c1ccc(C#C[C@@]2(O)CC[C@@]3(C)[C@H](CC[C@@H]4[C@@H]3CC[C@]3(C)[C@@H](C(C)=O)CC[C@@H]43)C2)cc1
Result block: 0.171 µM

----------
- System: GR complex
- TEST_DETAILS: [35S]TBPS binding assay (inhibition of [35S]TBPS binding, cerebral cortex P2 homogenate)
- Design: species or system rat
- APPLIED_CONDITIONS: maximum inhibition of [35S]TBPS binding
PARAMETER: IMAX (%)
One number for each entry, in %.

CC(=O)[C@H]1CC[C@H]2[C@@H]3CC[C@@H]4C[C@@](O)(C#Cc5ccc(F)cc5F)CC[C@]4(C)[C@H]3CC[C@]12C	102
CC12CCC(O)(C#CCO)CC1CCC1C2CCC2(C)C(C(=O)Cn3ccnn3)CCC12 (stereo not drawn)	101
CC(=O)[C@H]1CC[C@H]2[C@@H]3CC[C@@H]4C[C@@](O)(C#Cc5c(F)c(F)c(F)c(F)c5F)CC[C@]4(C)[C@H]3CC[C@]12C	69
C[C@@]1(O)CC[C@@]2(C)[C@@H](CC[C@@H]3[C@@H]2CC[C@]2(C)[C@@H](C(=O)Cn4cncn4)CC[C@@H]32)C1	105
CC(=O)C#C[C@@]1(O)CC[C@@]2(C)[C@H](CC[C@@H]3[C@@H]2CC[C@]2(C)[C@@H](C(C)=O)CC[C@@H]32)C1	107

Okay, here is my list. What is IMAX for each of these?
1. CC(=O)C#C[C@@]1(O)CC[C@@]2(C)[C@@H](CC[C@@H]3[C@@H]2CC[C@]2(C)[C@@H](C(C)=O)CC[C@@H]32)C1
2. C[C@]12CC[C@@H](O)C[C@H]1CC[C@@H]1[C@@H]2CC[C@]2(C)[C@@H](C(=O)Cn3cccn3)CC[C@@H]12
3. C[C@]12CC[C@@H](O)C[C@@H]1CC[C@@H]1[C@@H]2CC[C@]2(C)[C@@H](C(=O)CO)CC[C@@H]12 [3α,21-dihydroxy-5α-pregnan-20-one]
4. COc1ccc(CC[C@@]2(O)CC[C@@]3(C)[C@H](CC[C@@H]4[C@@H]3CC[C@]3(C)[C@@H](C(C)=O)CC[C@@H]43)C2)cc1OC
5. C[C@]12CC[C@@H](O)C[C@@H]1CC[C@@H]1[C@@H]2CC[C@]2(C)[C@@H](C(=O)Cn3ccnc3)CC[C@@H]12
6. CC(=O)[C@H]1CC[C@H]2[C@@H]3CC[C@@H]4C[C@@](O)(C#Cc5ccc(C)cc5)CC[C@]4(C)[C@H]3CC[C@]12C

Result block:
[104, 67, 100, 66, 99, 84]

I need IMAX for every entry listed below, if you could help.
1. CC(=O)[C@H]1CC[C@H]2[C@@H]3CC[C@@H]4C[C@@](O)(C#Cc5ccncc5)CC[C@]4(C)[C@H]3CC[C@]12C
2. CC(=O)[C@H]1CC[C@H]2[C@@H]3CC[C@@H]4C[C@@](O)(C#CCn5ccnn5)CC[C@]4(C)[C@H]3CC[C@]12C

Result block:
[103, 102]

Please look at the items below and tell me IMAX for each one, in order.
1. CC(=O)Oc1ccc(C#C[C@@]2(O)CC[C@@]3(C)[C@H](CC[C@@H]4[C@@H]3CC[C@]3(C)[C@@H](C(C)=O)CC[C@@H]43)C2)cc1
2. C[C@]12CC[C@@H]3c4ccc(O)cc4CC[C@H]3[C@@H]1CC[C@@H]2O [17β-Estradiol, reference compound]

Result block:
1. 100
2. 0
